experimental system: hGYS1 enzyme (recombinant hGYS1/GN1 protein) (Homo sapiens (Human), UniProt P13807)
Sequence (P13807 whole entry): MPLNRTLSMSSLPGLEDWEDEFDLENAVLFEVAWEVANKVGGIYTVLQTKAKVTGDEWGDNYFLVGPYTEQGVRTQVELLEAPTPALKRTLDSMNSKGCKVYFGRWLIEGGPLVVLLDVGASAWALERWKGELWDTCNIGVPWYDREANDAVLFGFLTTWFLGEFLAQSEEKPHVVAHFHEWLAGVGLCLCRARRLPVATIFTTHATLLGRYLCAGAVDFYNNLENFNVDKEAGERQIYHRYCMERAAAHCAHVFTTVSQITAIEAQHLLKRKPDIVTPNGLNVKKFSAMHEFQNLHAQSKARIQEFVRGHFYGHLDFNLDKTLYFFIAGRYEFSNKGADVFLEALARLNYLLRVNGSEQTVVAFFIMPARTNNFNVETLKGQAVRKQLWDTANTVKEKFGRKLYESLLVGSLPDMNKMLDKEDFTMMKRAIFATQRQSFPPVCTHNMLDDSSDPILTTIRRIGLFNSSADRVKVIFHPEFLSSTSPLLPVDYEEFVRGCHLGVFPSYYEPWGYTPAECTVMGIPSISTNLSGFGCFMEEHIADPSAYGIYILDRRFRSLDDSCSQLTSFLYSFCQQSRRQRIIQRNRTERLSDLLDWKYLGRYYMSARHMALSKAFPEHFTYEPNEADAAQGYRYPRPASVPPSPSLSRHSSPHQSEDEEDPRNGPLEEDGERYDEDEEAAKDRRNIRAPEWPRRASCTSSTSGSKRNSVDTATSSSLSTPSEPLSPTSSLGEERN
Sequence (P46976 whole entry partner): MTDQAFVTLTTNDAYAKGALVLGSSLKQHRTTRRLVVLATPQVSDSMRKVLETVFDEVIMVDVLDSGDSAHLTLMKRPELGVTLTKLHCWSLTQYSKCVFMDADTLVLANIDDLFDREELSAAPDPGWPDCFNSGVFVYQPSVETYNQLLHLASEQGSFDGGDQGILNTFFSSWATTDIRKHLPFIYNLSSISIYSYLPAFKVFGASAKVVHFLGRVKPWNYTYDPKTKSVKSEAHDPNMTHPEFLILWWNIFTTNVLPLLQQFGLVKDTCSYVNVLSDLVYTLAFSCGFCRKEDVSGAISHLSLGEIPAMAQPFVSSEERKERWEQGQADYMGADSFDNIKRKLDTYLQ
experimental protocol: GYS1 coupled enzyme assay (PK/LDH)
run parameters: hGYS1/GN1 50 nM, UDP-Glucose 0.8 mM, G6P 1 mM; geometric mean of at least 2 runs
Source text: The GYS1 coupled enzyme assay is a kinetic biochemical assay that indirectly quantifies the rate of glycogen synthesis by coupling the conversion of GYS1 substrate UDP-glucose into UDP with downstream enzymatic reactions. UDP is released from UDP-glucose as glucose monomers are linked into the growing glycogen strand by GYS1. […] Oxidation of NADH to NAD+ can be measured continuously with a plate reader by quantifying the decrease in NADH absorbance at 340 nm over time. […]
measured property: IC50 (nM)

compound | IC50 (nM)
CN1CCN(C(=O)OCC(=O)N2C[C@H](F)C[C@H]2C(=O)N[C@@H](c2ccccc2)c2ccc(C3CC3)c(F)c2)CC1 | 75

1: CC(C)c1ccc([C@@H](NC(=O)[C@@H]2C[C@@H](F)CN2C(=O)Cc2nnco2)c2ccccc2)cc1 (stereo in doubt)
2: CC(C)c1ccc([C@@H](NC(=O)[C@@H]2C[C@@H](F)CN2C(=O)C(C)n2cnnn2)c2ccccc2)cc1F (single isomer, unassigned) [Compound 767]
Smaller IC50 value, 1 vs 2 ? # reply format: chosen label
1
(1: 70 nM, 2: 106 nM)
